The origin of these recorded values is patent US20260258115A1.

Target: RSV prefusion F (preF), subtype A (respiratory syncytial virus, subtype A, UniProt P03420 26-513)
Assay: BLI, IgG
Kindly supply the reported Kd values for the records listed here.
Your reply should be a number followed by the unit it is expressed in.

-- ask Fill in the blank: the reported Kd of ADI-21060 (antibody, V domains shown) VH: EVQLVESGGGLVKPGGSLRLSCEASGFRLSDYYMTWIRQAPGKGLECISYISGGSTFKSYSDSVKGRFTISRDNTNLYLQMNSLRVEDTAVYYCARAPYLIYYMDVWGKGTTVTVSS VL: QPVLTQPPSVSGAPGQRVSISCTGSNSNIGAGYDVHWYQQLPGTPPKLLIYDNNNRPSGVPDRFSGSKSGTSASLAITGLQAEDEADYYCQSYDNRLSGSQVLFGGGTKVTVL is ____.
-- reply 0.426 nM

-- ask What do we get for ADI-20963 (antibody, V domains shown) VH: EVQLVESGGGLAKPGGSLRLSCAASGFTFSHYNMNWVRQAPGKGLEWVSSISSTGFHIYYADSVKGRFVISRDNAENSLHLQMNSLRADDTGLYYCVRAEYYYGSGSAGHYFDSWGQGTLVTVSS VL: SYVLTQPPSVSVAPGHTAKITCGGSIIGTKSVHWYQQKPGQAPVLVVYDDSDRPSGIPERLSGSRSGNTATLTITRVEAGDEADYYCQVWDSSSEHAGVFGGGTKLTVL ?
-- reply 0.791 nM

-- ask What do we get for ADI-21062 (antibody, V domains shown, also called Ab 310) VH: EVQLLESGGGLVKPGGSLRLSCAASGFTFSDYDMIWVRQAPGKGLEWVSSISRGSDYIYYADSLKGRFTISRDNARNSVTLQMNSLRAGDTALYFCARAELLDSGGYYLYYFDHWGQGTLVTVSS VL: DIRMTQSPSSLSASVGDRVTITCRASQIIASYVNWYQKKPGKAPKVLIYAASRLQNGVPSRFSGSGSGTEFTLTISSLQPEDFATYYCQQSYSTSFTFGQGTKVDIK ?
-- reply 1.24 nM

-- ask What do we get for ADI-20961 (antibody, V domains shown) VH: QVQLVESGGGLVKPGGSLRLSCAASGFKFSSYYMHWVRQAPGKGLEWVSSVSGGSTYTSYADSVKGRFTISRDNAKHSLFLQLNSLRAEDTAVYHCVRGDYHPSGTSLNWFDPWGQGTLVTVSS VL: QPGLTQPPSVSGAPGQRVTISCTGSSSNIGAGYDVHWYKQLPGTVPKLLIYANNNRPSGVPDRFSGSESGTSASLAITGLQAEDEADYYCQSYDSSLNAYVFGTGTKVTVL ?
-- reply 0.374 nM

-- ask What do we get for ADI-21034 (antibody, V domains shown) VH: QVQLQQSGAEVKKPGESLTISCKGSGYSFGNYWISWVRQMPGKGLEWMGRIDPSDSYVNYSPSFQGNVTMSVDKSSSTAYLQWSSLKASDTAMYYCARLAGYSTLWGQGTLVTVSS VL: EIVLTQSPGTLSLSPGERATLSCRASQSFGSIYLAWYQQKPGQAPRLLIYGTSSRATGIPDRFSGSGSGTDFTLTIRRLEPEDFAVYYCLYYGSSPGATFGPGTKVDIK ?
-- reply 0.145 nM

-- ask What do we get for ADI-20990 (antibody, V domains shown) VH: EVQLVESGGGVVQPGRSLRLSCSASGFPFHSYAMHWVRQAPGKGLEWVAGIWYEGSSESYADSVKGRLTISRDNSRNTLYLQMNSLRVEDTAVYYCARRGSFSGFDSWGQGSLVTVSS VL: DIVMTQSPLSLPVTPGEPASISCRSSQSLLHSNGYNYLDWYLQKPGQSPQLLISLGSNRASGVPDRFSGSVAGTDFTLKISRVEAEDVGVYYCMQSSQTPYTFGQGTKVDIK ?
-- reply 1.58 nM

-- ask What do we get for ADI-21006 (antibody, V domains shown) VH: QVTLKESGPTLVKPTQTLTLTCTFSGFSLSISGVGVGWIRQPPGKALEWLAVMYWDDDKRYSPSLKTRLTITKDTSKNQVVLTMTNMAPVDTAIYYCAHLWFGEAAFDPWGQGTLVTVSS VL: EIVLTQSPLSLPVTLRQTASISCRSGQSLLYSDGNTYLNWFQQRPGQSPRRLISIVSKRDSGVPDRFSGSGSGTDFTLKISRVEAEDVGVYYCMQGTHWPYTFGQGTKVEIK ?
-- reply 10.4 nM

-- ask What do we get for ADI-14577 (antibody, V domains shown) VH: QVQLVQSGAEVKKPGASVKVSCKASGYTFTNYGITWVRQAPGQGLEWMGWISAYNGVRNYAQKLQGRVTMTIDTSRTTAYMELKNLRSDDTAMYYCARGPPVIAADDFQHWGQGTMVTVSS VL: DIQMTQSPLSLPVTLGQPASISCRSSQSLVHSNGDTYLNWFQQRPGRSPRRLIYKVSNRDSGVPDRFSGSGSGTDFTLKISRVEAEDVGVYYCMQGTHWPPDFGQGTRLEIK ?
-- reply 0.439 nM

-- ask What do we get for ADI-14599 (antibody, V domains shown) VH: EVQLVESGGGLVQPGRSLRLSCKTSGFTFGDYAMSWVRQAPGQGLDWVGFIRTKAYGGTTEYAASVKGRFTLSRDDSKSIAYLQMNSLKTEDTAVYYCKSGGQFDYWGRGTLVTVSS VL: NFMLTQPHSVSGSPGKTVTISCTGSSGSIASNYVQWYQQRPGSAPTTVICEDNQRPSGVPDRFSGSIDSSSNSASLTISGLKTEDEADYYCQSYDRSNQEVFGGGTKLTVL ?
-- reply 0.102 nM

-- ask What do we get for ADI-14414 (antibody, V domains shown, also called Ab 80) VH: QVQLVQSGAEVKKPGSSMKVSCKASGGSFSSYGISWLRQAPGQAPEWMGGIIPIFGTINYAQKFQGRITISADESTSTVYMELSSLRIEDTAVYYCARDGRTSPRYYGWDVWGQGTTVTVSS VL: DIRLTQSPATLSLSPGDRATLSCRASQSLYTYLSWYQQKPGQAPRLLIYDASNRATGIPARFSGSGSGTDFTLTISSLEPEDFAVYYCHYRSNWPPCTFGGGTKVDIK ?
-- reply 5 nM
